biological target: Sphingosine kinase 1 (Homo sapiens); assay: Rate of phosphorylation of labeled sphingosine derivative by human SPHK-1 expressed in HEK293 cells relative to rate of D-sphingosine; format: functional, cell-based
Metric Name: Rate

Molecule: N[C@@H](CO)[C@H](O)/C=C/CCCOC(=O)CCCCCc1ccc2ccc3cccc4ccc1c2c34
Rate: 0.078

Molecule: NC(CO)[C@H](O)/C=C/CCCCCCCCCCNc1ccc([N+](=O)[O-])c2nonc12 (single isomer, unassigned)
Rate: 0.5

Molecule: N[C@@H](CO)[C@H](O)/C=C/CCCOC(=O)CCCc1ccc2ccc3cccc4ccc1c2c34
Rate: 0.048

Molecule: NC(CO)[C@H](O)/C=C/CCCCCCCCCCNS(=O)(=O)c1ccc2ccc3cccc4ccc1c2c34 (some centres not stated)
Rate: 0.051

[1] CN(C)c1ccc(S(=O)(=O)NCCCCCCCCCC/C=C/C(O)C(N)CO)c2ccccc12 (single isomer, unassigned)
[2] N[C@@H](CO)[C@H](O)/C=C/CCCOC(=O)CCCCCCCCCc1ccc2ccc3cccc4ccc1c2c34
[3] N[C@@H](CO)[C@H](O)/C=C/CCCCCCCCCCOC(=O)c1ccc2ccc3cccc4ccc1c2c34
stdin: Ordering: ascending Rate. // list labels; follow requested order
stdout: 2, 1, 3

====

molecular target: Sphingosine kinase 2 (Homo sapiens); experiment: Rate of phosphorylation of labeled sphingosine derivative by human SPHK-2 expressed in HEK293 cells relative to rate of D-sphingosine; type: functional, cell-based
Metric Name: Rate

Molecule: NC(CO)[C@H](O)/C=C/CCCCCCCCCCNS(=O)(=O)c1ccc2ccc3cccc4ccc1c2c34 (some centres not stated)
Endpoint Value: 0.83

[I] CN(C)c1ccc(S(=O)(=O)NCCCCCCCCCC/C=C/C(O)C(N)CO)c2ccccc12 (single isomer, unassigned)
[II] N[C@@H](CO)[C@H](O)/C=C/CCCOC(=O)CCCc1ccc2ccc3cccc4ccc1c2c34
stdin: Consider I and II . Which of these has its Rate at a higher number? Bench note: the answer is the label of the chosen record.
stdout: II

====

Biological target: Sphingosine kinase 2 (Homo sapiens)
Sequence (whole entry): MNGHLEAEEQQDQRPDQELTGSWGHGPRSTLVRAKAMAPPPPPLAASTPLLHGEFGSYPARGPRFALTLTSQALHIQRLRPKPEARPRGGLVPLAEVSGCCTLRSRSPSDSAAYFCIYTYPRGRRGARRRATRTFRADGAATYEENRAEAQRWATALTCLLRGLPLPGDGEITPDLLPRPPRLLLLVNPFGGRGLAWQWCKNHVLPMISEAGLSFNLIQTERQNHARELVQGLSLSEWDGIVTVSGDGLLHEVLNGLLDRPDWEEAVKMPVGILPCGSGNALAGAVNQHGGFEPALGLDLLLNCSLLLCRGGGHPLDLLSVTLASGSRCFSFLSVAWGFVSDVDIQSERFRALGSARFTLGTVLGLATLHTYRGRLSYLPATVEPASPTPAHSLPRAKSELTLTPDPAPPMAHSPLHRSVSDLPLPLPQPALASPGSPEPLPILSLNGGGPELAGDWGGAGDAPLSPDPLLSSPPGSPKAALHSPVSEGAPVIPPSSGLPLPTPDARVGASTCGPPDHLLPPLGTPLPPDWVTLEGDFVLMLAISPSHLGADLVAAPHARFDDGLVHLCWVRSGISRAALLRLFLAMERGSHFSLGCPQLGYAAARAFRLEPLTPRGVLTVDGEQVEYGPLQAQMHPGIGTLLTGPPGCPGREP
Assay: Rate of phosphorylation of labeled sphingosine derivative by human SPHK-2 expressed in HEK293 cells relative to rate of D-sphingosine
Format: functional, cell-based
Metric Name: Rate

[A] N[C@@H](CO)[C@H](O)/C=C/CCCOC(=O)CCCCCc1ccc2ccc3cccc4ccc1c2c34
[B] N[C@@H](CO)[C@H](O)/C=C/CCCCCCCCCCOC(=O)c1ccc2ccc3cccc4ccc1c2c34
stdin: Select one. Lower Rate: A or B Select an item and report its label.
stdout: A
